molecular target: Human UDP-glucose dehydrogenase (hUGDH) (Homo sapiens); assay: NADH absorbance ([…] nm) steady-state kinetics, global fit of UDP-Glc saturation curves; format: biochemical; set-up: gene UGDH; recombinant unliganded hUGDH, His tag removed
property.label: Ki (nM)
Give just the number in nM; leave the unit off.

I am curious: what Ki value has been reported for O=c1ccn([C@@H]2O[C@H](COP(=O)(O)OP(=O)(O)O[C@H]3OC[C@@H](O)[C@H](O)[C@H]3O)[C@@H](O)[C@H]2O)c(=O)[nH]1 ? 440

* * *

target: Human UDP-glucose dehydrogenase (hUGDH) (Homo sapiens, UniProt O60701); assay: cryo-EM structure ([…] Å) of copurified complex, HPLC/NMR/MS ligand identification; Ki from global fit of competitive inhibition kinetics; type: biochemical; parameters: gene UGDH; recombinant hUGDH, N-terminal His tag removed by TEV; hexamer
Sequence (O60701 whole entry): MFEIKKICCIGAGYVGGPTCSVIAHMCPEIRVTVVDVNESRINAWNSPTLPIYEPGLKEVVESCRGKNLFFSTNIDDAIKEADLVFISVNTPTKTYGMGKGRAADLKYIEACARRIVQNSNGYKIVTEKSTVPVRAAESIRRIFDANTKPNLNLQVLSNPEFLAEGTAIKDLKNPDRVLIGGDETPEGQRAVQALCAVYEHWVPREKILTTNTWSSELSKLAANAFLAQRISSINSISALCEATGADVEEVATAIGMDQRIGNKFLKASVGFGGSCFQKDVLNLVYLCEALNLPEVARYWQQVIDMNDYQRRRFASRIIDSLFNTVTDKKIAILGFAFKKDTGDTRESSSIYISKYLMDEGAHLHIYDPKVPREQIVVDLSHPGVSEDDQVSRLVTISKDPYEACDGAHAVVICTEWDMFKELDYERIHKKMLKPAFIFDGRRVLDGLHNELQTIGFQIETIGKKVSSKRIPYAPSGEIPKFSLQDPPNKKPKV
property.label: pKi
Scale: pKi equals -log10([C]), with [C] in mol/L.

Entry O=C1CO[C@H](OP(=O)(O)OP(=O)(O)OC[C@H]2O[C@@H](n3ccc(=O)[nH]c3=O)[C@H](O)[C@@H]2O)[C@H](O)[C@H]1O has what pKi? 6.12
